- Tested on: HEK293
- Method Notes: Activation of rat TRPV3 expressed in HEK293 cells assessed as stimulation of intracellular Ca2+ levels relative to 4 uM ionomycin
- Type: cell-based
Assign a class from recorded Efficacy; defined classes: bottom end = under 30%, midrange = from 30% up to 40%, top end = 40% and over

INPUT: Which of the defined bands does the recorded Efficacy of COc1ccc(C(=O)Nc2cc(C)ccc2C(C)C)cc1 sit within?
OUTPUT: bottom end

INPUT: And COc1ccc(OC(=O)c2cc(C)ccc2C(C)C)cc1 ?
OUTPUT: bottom end

INPUT: And Cc1ccc(C(C)C)c(C(=O)Oc2ccc(-c3ccccc3)cc2)c1 ?
OUTPUT: top end

INPUT: And Cc1ccc(C(C)C)c(NC(=O)Oc2ccc(C(F)(F)F)cc2)c1 ?
OUTPUT: bottom end

// provenance: ChEMBL document CHEMBL2086321
